Cited source: patent US10052322B2

Assay: Solubility of Form A in selected aqueous and organic solvents (HPLC)
Format: physicochemical
Details: ethyl acetate, organic solvent or mixture, thermodynamic from solid; read-out: Solubility (mg/mL) (room temperature)
experimental.readout: solubility at 24 h (mg/mL)
I only need the number, in mg/mL, no unit after it.

// solubility at 24 h lookup, key: CCN1C(=O)CNc2ncc(-c3ccc(-c4nnc[nH]4)nc3C)nc21 [Form A]
0.32

* * *

Assay: Solubility of Form A in selected aqueous and organic solvents (HPLC)
Type: physicochemical
Settings: 0.9% NaCl, saline or isotonic, thermodynamic from solid; read-out: Solubility (mg/mL) (room temperature)
experimental.readout: solubility at 24 h (mg/mL)
I only need the number, in mg/mL, no unit after it.

// solubility at 24 h lookup, key: CCN1C(=O)CNc2ncc(-c3ccc(-c4nnc[nH]4)nc3C)nc21 [Form A]
0.03
